Assay: thioesterase activity (production of TNB at 412 nm)
Assay type: biochemical
Conditions: crude cell extract; 200 μM substrate; expressed from pCA24N
METRIC_NAME: Specific activities of selected thioesterases on Decanyl-CoA (μmol/mg protein/min)
Give the quantity in μmol/mg protein/min, number only.

// below: answered molecules
>  <MOLECULE>
FadM: E. coli long-chain acyl-CoA thioesterase (protein, UniProt P77712 1-132, looked up) Long-chain acyl-CoA …: MQTQIKVRGYHLDVYQHVNNARYLEFLEEARWDGLENSDSFQWMTAHNIAFVVVNININYRRPAVLSDLLTITSQLQQLNGKSGILSQVITLEPEGQVVADALITFVCIDLKTQKALALEGELREKLEQMVK

>  <MEASURED_NUMBER>
0.034

$$$$
>  <MOLECULE>
YciA: E. coli acyl-CoA thioesterase (protein, UniProt P0A8Z0 1-132, looked up) Acyl-CoA thioester hydrolase …: MSTTHNVPQGDLVLRTLAMPADTNANGDIFGGWLMSQMDIGGAILAKEIAHGRVVTVRVEGMTFLRPVAVGDVVCCYARCVQKGTTSVSINIEVWVKKVASEPIGQRYKATEALFKYVAVDPEGKPRALPVE

>  <MEASURED_NUMBER>
3.7

$$$$

Okay, now this molecule:
So for TesA: E. coli multifunctional acyl-CoA thioesterase I and protease I and lysophospholipase L1 (protein, UniProt P0ADA1 27-208, looked up) Thioesterase 1/protease …: ADTLLILGDSLSAGYRMSASAAWPALLNDKWQSKTSVVNASISGDTSQQGLARLPALLKQHQPRWVLVELGGNDGLRGFQPQQTEQTLRQILQDVKAANAEPLLMQIRLPANYGRRYNEAFSAIYPKLAKEFDVPLLPFFMEEVYLKPQWMQDDGIHPNRDAQPFIADWMAKQLQPLVNHDS , the logged Specific activities of selected thioesterases on Decanyl-CoA turned out to be 0.47

From: patent US9994881B2
